Data origin, for the record: the RNAGym collection of RNA variant scans (doi:10.7554/elife.80360)

B1: HDV Ribozyme (parent)
chain: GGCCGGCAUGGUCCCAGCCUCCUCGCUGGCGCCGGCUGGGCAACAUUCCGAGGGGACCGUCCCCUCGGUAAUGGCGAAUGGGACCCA

Variants of: B1
Assay: self-cleavage, relative activity (ratio to wild type); higher = more cleavage; co-transcriptional
Outcome Measure: self-cleavage

| Sequence Text | Reading |
| --- | --- |
| GGCCGGCUUGGUCCCAGCCUCCUCGCUGGCGCCGGCUGGGCAACAUUCGGAGGGGACCGUCCCCUCGGUAAUGGCGAAUGGGACCCA | 0.76 |
| GGCCGGCAUGGUCCCAGCCUCCUCGCUGGCGCCGGAUGGGCAACAUUCCGAGGGGACCGUCCCCUCGGAAAUGGCGAAUGGGACCCA | 0.0755 |
| GGCCGGCAUGGUCCCAGCCUCCUCGCUGGCGCCGGCUGGGCAACAUUCCGAGGGGACCGUCACCUCGGUAAUGCCGAAUGGGACCCA | 0.113 |
| GGCUGGCAUGGUCCCAGCCUCCUCGCUGGCGCCGGCUGGGCAACAUUCUGAGGGGACCGUCCCCUCGGUAAUGGCGAAUGGGACCCA | 0.789 |
| GGCCGGCAUGGUCCCAGCCUCCUCGCUGGCGCCGGCUGGGCAACAUUCCGAGGGGACCGUCCCCUCGUUAAUGGCGAAUGGUACCCA | 0.265 |
| GGCCGGCAUGGUCGCAGCCUCCUCGCUGGCGCCGGCUGGGCAACAUUCCGAGGCGACCGUCCCCUCGGUAAUGGCGAAUGGGACCCA | 0.277 |
| GGCCGGCAUGGUCCCAGCCUCCCCGCUGGCGCCGGCUGGGCAACAUUCCGAAGGGACCGUCCCCUCGGUAAUGGCGAAUGGGACCCA | 0.906 |
| GGCCGGCAUGGUCCCAGCCUCCUCGCUGGCGCCGGCUGGGCAACAUUCCGAGGGGACCGUCCCUUCGGUAAUGGCGAAUGGAACCCA | 0.487 |
| GGCCGGCAUGGUCCCAGCCUCAUCGCUGGCGCCGGCUGGGCAACAUUCCGAGGGGACCGUCCCGUCGGUAAUGGCGAAUGGGACCCA | 0.302 |
| GGCGGGCAUGGUCCCAGCCUCCUCGCUGGCGCCGGCUGGGCAACAUUCCGAGGGGACCGCCCCCUCGGUAAUGGCGAAUGGGACCCA | 0.0875 |
| GGCCGGCAUGGUCCCAGCCUCCUCGCUGGCGCCGGCUGGGCAACAUUCCGAGGGGACCGUCCCCUCGGUAAUGCCGAAUGGGAACCA | 0.177 |
| GGCCGGCAUGGUCCCAGCCUCCUCGCUGGCGCCGGCUGGGCAACAUUCCGAGCGGACCGUCCCCUAGGUAAUGGCGAAUGGGACCCA | 0.73 |
| GGCCGGCAUGGUCCCAGCCUCCUCGCUGGCGCCGGCUGGGCAACAUUCCGAGGGGACCGUCCCCUCGGUCAUGGCGAAUGUGACCCA | 0.249 |
| GGCCGGCAUGGUCCCAGCCUCGUCGCUGGCGCCGGCUGGGCAACAUUCCGAGGGGACCGUCCCCUCGGUAAUGGCGAAUGGGACCCC | 0.0866 |
| GGCCGGCAUGGUCCCAGCCUCCUGGCUGGCGCCGGCUGGGCAACAUUCCCAGGGGACCGUCCCCUCGGUAAUGGCGAAUGGGACCCA | 0.0755 |
| GGCCGGCAUGGUCCCAGCCUCGUCGCUGGCGACGGCUGGGCAACAUUCCGAGGGGACCGUCCCCUCGGUAAUGGCGAAUGGGACCCA | 0 |
